# maps each entry to its concentration at 3 h
Assay: Intracolonic dosing with and without β-glucuronidase, catheterized rat
Assay type: in vivo
Conditions: male, Sprague Dawley, rat, plasma, other: intracolonic, 10 mg/kg, rats N=6; Compound 1 10 mg/kg intracolonic without enzyme; 3 hrs

- compound: "COc1cc2c(cc1OC)-c1n[nH]c(Nc3cccc(F)c3)c1C2"
  concentration at 3 h, ng/mL: 1.1
- compound: "COc1cc2c(cc1OC)-c1nn(C3OC(C(=O)O)C(O)C(O)C3O)c(Nc3cccc(F)c3)c1C2 (stereo in doubt)"
  concentration at 3 h, ng/mL: 7.1
- compound: "COc1cc2c(cc1OC)-c1n[nH]c(N(c3cccc(F)c3)[C@H]3O[C@@H](C(=O)O)[C@H](O)[C@@H](O)[C@@H]3O)c1C2"
  concentration at 3 h, ng/mL: 66.6

----------
Assay: Oral gavage pharmacokinetics, jugular and portal vein sampling, first pass metabolism
Format: in vivo, rat
Conditions: male, Sprague Dawley, rat, portal vein plasma, po, 75 mg/kg, rats N=4; Compound 1 75 mg/kg oral gavage; portal sample; read-out: AUC average ± standard deviation 0 to 24 hours
# maps each entry to its AUC
endpoint.name: AUC (ng·h/mL)

- compound: "COc1cc2c(cc1OC)-c1n[nH]c(Nc3cccc(F)c3)c1C2 [Compound 1]"
  endpoint.name: "AUC"
  readout.units: "ng·h/mL"
  reading: 11900
- compound: "COc1cc2c(cc1OC)-c1n[nH]c(N(c3cccc(F)c3)[C@H]3O[C@@H](C(=O)O)[C@H](O)[C@@H](O)[C@@H]3O)c1C2 [Cpd 1-GluA]"
  endpoint.name: "AUC"
  readout.units: "ng·h/mL"
  reading: 190000
- compound: "COc1cc2c(cc1OC)-c1nn(C3OC(C(=O)O)C(O)C(O)C3O)c(Nc3cccc(F)c3)c1C2 (stereo in doubt) [Cpd 1-GluB]"
  endpoint.name: "AUC"
  readout.units: "ng·h/mL"
  reading: 1960

----------
Assay: Intraduodenal dosing with and without β-glucuronidase, catheterized rat
Assay type: in vivo
Conditions: male, Sprague Dawley, rat, plasma, 10 mg/kg, rats N=6; Compound 1 10 mg/kg intraduodenal with β-glucuronidase; read-out: AUC average ± standard deviation 0 to 6 hours
endpoint.name: AUC (ng·h/mL)

- compound: "COc1cc2c(cc1OC)-c1n[nH]c(N(c3cccc(F)c3)[C@H]3O[C@@H](C(=O)O)[C@H](O)[C@@H](O)[C@@H]3O)c1C2"
  reading: 8940
- compound: "COc1cc2c(cc1OC)-c1nn(C3OC(C(=O)O)C(O)C(O)C3O)c(Nc3cccc(F)c3)c1C2 (stereo in doubt)"
  reading: 1770
- compound: "COc1cc2c(cc1OC)-c1n[nH]c(Nc3cccc(F)c3)c1C2"
  reading: 177

----------
Assay: IV pharmacokinetics of Compound 1 and its glucuronides in rats
Type: in vivo, rat
Conditions: Sprague Dawley, rat, plasma; male rats N=4; Compound 1 2 mg/kg IV; retro orbital sinus; 8 hrs
endpoint.name: concentration at 8 h (ng/mL)

- compound: "COc1cc2c(cc1OC)-c1n[nH]c(N(c3cccc(F)c3)[C@H]3O[C@@H](C(=O)O)[C@H](O)[C@@H](O)[C@@H]3O)c1C2 [Cpd 1-GluA]"
  reading: 369
- compound: "COc1cc2c(cc1OC)-c1nn(C3OC(C(=O)O)C(O)C(O)C3O)c(Nc3cccc(F)c3)c1C2 (stereo in doubt) [Cpd 1-GluB]"
  reading: 0
- compound: "COc1cc2c(cc1OC)-c1n[nH]c(Nc3cccc(F)c3)c1C2 [Compound 1]"
  reading: 0

----------
Test: Oral gavage pharmacokinetics, jugular and portal vein sampling, first pass metabolism
Format: in vivo, rat
Settings: male, Sprague Dawley, rat, portal vein plasma; rats N=4; Compound 1 75 mg/kg oral gavage; portal sample; 24 hrs

- molecule: "COc1cc2c(cc1OC)-c1nn(C3OC(C(=O)O)C(O)C(O)C3O)c(Nc3cccc(F)c3)c1C2 (stereo in doubt)"
  readout.units: "ng/mL"
  concentration at 24 h: 39.9
- molecule: "COc1cc2c(cc1OC)-c1n[nH]c(N(c3cccc(F)c3)[C@H]3O[C@@H](C(=O)O)[C@H](O)[C@@H](O)[C@@H]3O)c1C2"
  readout.units: "ng/mL"
  concentration at 24 h: 5070
- molecule: "COc1cc2c(cc1OC)-c1n[nH]c(Nc3cccc(F)c3)c1C2"
  readout.units: "ng/mL"
  concentration at 24 h: 224

----------
Assay: Solubility
Assay type: physicochemical
Conditions: neat PEG-400, organic solvent or mixture; read-out: Solubility

- structure.notation: "COc1cc2c(cc1OC)-c1n[nH]c(Nc3cccc(F)c3)c1C2"
  readout.units: "µg/mL"
  solubility: 7500

----------
Assay: Intracolonic dosing with and without β-glucuronidase, catheterized rat
Assay type: in vivo
Conditions: male, Sprague Dawley, rat, plasma, other: intracolonic, 10 mg/kg, rats N=6; Compound 1 10 mg/kg intracolonic with β-glucuronidase; 4 hrs
Protocol: A catheterized rat model was used in which the agent alone or agent and β-glucuronidase enzyme was administered intraduodenally or intracolonically. […] A quantitative method for determining the amount of (6,7-dimethoxy-2,4-dihydro-indeno[1,2-c]pyrazol-3-yl)-(3-fluoro-phenyl)-amine Compound 1 and its major metabolites, glucuronide A (Cpd 1-GluA) and glucuronide B (Cpd 1-GluB) (see Scheme A) in rat plasma was developed using phenacetin as an internal standard. […]
# maps each entry to its concentration at 4 h

- molecule: "COc1cc2c(cc1OC)-c1nn(C3OC(C(=O)O)C(O)C(O)C3O)c(Nc3cccc(F)c3)c1C2 (stereo in doubt) [Cpd 1-GluB]"
  concentration at 4 h, ng/mL: 194
- molecule: "COc1cc2c(cc1OC)-c1n[nH]c(N(c3cccc(F)c3)[C@H]3O[C@@H](C(=O)O)[C@H](O)[C@@H](O)[C@@H]3O)c1C2 [Cpd 1-GluA]"
  concentration at 4 h, ng/mL: 480
- molecule: "COc1cc2c(cc1OC)-c1n[nH]c(Nc3cccc(F)c3)c1C2 [Compound 1]"
  concentration at 4 h, ng/mL: 9.5

----------
# maps each entry to its concentration at 0 h
Test: Intracolonic dosing with and without β-glucuronidase, catheterized rat
Format: in vivo
Conditions: male, Sprague Dawley, rat, plasma, other: intracolonic, 10 mg/kg, rats N=6; Compound 1 10 mg/kg intracolonic with β-glucuronidase; 0 hrs
endpoint.name: concentration at 0 h

- compound: "COc1cc2c(cc1OC)-c1n[nH]c(Nc3cccc(F)c3)c1C2 [Compound 1]"
  reading: "0 µg/mL"
- compound: "COc1cc2c(cc1OC)-c1nn(C3OC(C(=O)O)C(O)C(O)C3O)c(Nc3cccc(F)c3)c1C2 (stereo in doubt) [Cpd 1-GluB]"
  reading: "0 µg/mL"
- compound: "COc1cc2c(cc1OC)-c1n[nH]c(N(c3cccc(F)c3)[C@H]3O[C@@H](C(=O)O)[C@H](O)[C@@H](O)[C@@H]3O)c1C2 [Cpd 1-GluA]"
  reading: "0 µg/mL"

----------
# maps each entry to its concentration at 4 h
Assay: Intracolonic dosing with and without β-glucuronidase, catheterized rat
Assay type: in vivo
Conditions: male, Sprague Dawley, rat, plasma, other: intracolonic, 10 mg/kg, rats N=6; Compound 1 10 mg/kg intracolonic without enzyme; 4 hrs

- molecule: "COc1cc2c(cc1OC)-c1nn(C3OC(C(=O)O)C(O)C(O)C3O)c(Nc3cccc(F)c3)c1C2 (stereo in doubt)"
  readout.units: "ng/mL"
  concentration at 4 h: 9.6
- molecule: "COc1cc2c(cc1OC)-c1n[nH]c(N(c3cccc(F)c3)[C@H]3O[C@@H](C(=O)O)[C@H](O)[C@@H](O)[C@@H]3O)c1C2"
  readout.units: "ng/mL"
  concentration at 4 h: 88.2
- molecule: "COc1cc2c(cc1OC)-c1n[nH]c(Nc3cccc(F)c3)c1C2"
  readout.units: "ng/mL"
  concentration at 4 h: 0

----------
Assay: IV pharmacokinetics of Compound 1 and its glucuronides in rats
Type: in vivo, rat
Conditions: Sprague Dawley, rat, plasma; male rats; Compound 1 2 mg/kg IV
# maps each entry to its Tmax
endpoint.name: Tmax

- compound: "COc1cc2c(cc1OC)-c1n[nH]c(N(c3cccc(F)c3)[C@H]3O[C@@H](C(=O)O)[C@H](O)[C@@H](O)[C@@H]3O)c1C2"
  reading: "18 min"
- compound: "COc1cc2c(cc1OC)-c1nn(C3OC(C(=O)O)C(O)C(O)C3O)c(Nc3cccc(F)c3)c1C2 (stereo in doubt)"
  reading: "18 min"

----------
Assay: Oral gavage pharmacokinetics, jugular and portal vein sampling, first pass metabolism
Type: in vivo, rat
Details: male, Sprague Dawley, rat, portal vein plasma; rats N=4; Compound 1 75 mg/kg oral gavage; portal sample; 0.25 hrs
endpoint.name: concentration at 0.25 h (ng/mL)

- molecule: "COc1cc2c(cc1OC)-c1n[nH]c(Nc3cccc(F)c3)c1C2"
  endpoint.name: "concentration at 0.25 h"
  readout.units: "ng/mL"
  reading: 4250
- molecule: "COc1cc2c(cc1OC)-c1nn(C3OC(C(=O)O)C(O)C(O)C3O)c(Nc3cccc(F)c3)c1C2 (stereo in doubt)"
  endpoint.name: "concentration at 0.25 h"
  readout.units: "ng/mL"
  reading: 215
- molecule: "COc1cc2c(cc1OC)-c1n[nH]c(N(c3cccc(F)c3)[C@H]3O[C@@H](C(=O)O)[C@H](O)[C@@H](O)[C@@H]3O)c1C2"
  endpoint.name: "concentration at 0.25 h"
  readout.units: "ng/mL"
  reading: 18900
